What follows is a record of pIC50 for BTK (Homo sapiens (Human)).
pIC50: −log10 of the molar value.

molecular string	pIC50
CCn1c(=O)c(-c2ccccc2)cc2cnc(Nc3cn(C)cn3)cc21	5.30 to 6.00

Q. Please give the measured pIC50 for this compound: CCN(CC)CCOc1ccc(Nc2cc3c(cn2)cc(-c2ccccc2)c(=O)n3C2CCOCC2)nc1
A. 6.00 to 7.00

Q. Now give it for CCn1c(=O)c(C(C)C)cc2cnc(Nc3ccc(C)cn3)cc21 too.
A. 5.30 to 6.00

Q. Repeat with CCn1c(=O)c(-c2ccccc2)cc2cnc(Nc3ccncn3)cc21
A. 6.00 to 7.00

Q. Then CCn1c(=O)c(-c2c(Cl)cccc2Cl)cc2cnc(Nc3ccc(F)cn3)cc21 ?
A. 6.00 to 7.00
